system: AKT2 (Homo sapiens (Human))
Sequence (P31751 whole entry): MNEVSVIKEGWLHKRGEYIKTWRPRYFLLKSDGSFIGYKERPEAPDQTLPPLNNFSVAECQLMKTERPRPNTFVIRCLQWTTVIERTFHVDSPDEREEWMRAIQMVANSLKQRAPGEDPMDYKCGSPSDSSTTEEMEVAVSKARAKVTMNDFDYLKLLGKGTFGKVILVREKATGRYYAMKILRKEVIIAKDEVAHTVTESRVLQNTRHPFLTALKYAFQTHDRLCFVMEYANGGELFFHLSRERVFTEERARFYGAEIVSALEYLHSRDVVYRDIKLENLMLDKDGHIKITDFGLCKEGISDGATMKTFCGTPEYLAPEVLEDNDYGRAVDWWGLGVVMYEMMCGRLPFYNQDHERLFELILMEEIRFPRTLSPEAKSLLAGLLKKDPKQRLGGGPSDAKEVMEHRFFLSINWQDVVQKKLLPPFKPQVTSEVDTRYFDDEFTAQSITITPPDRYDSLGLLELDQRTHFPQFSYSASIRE
procedure_details: Live cell target engagement (NanoBRET) in HEK293 cells
Assay type: cell-based
condition: HEK293, 2 hours at 37° C.
pIC50: −log10 of the molar value.
Examples of molecules with documented pIC50 follow.

>>> df
                                   molecule  value_reported
0  Nc1ncccc1-c1nc2ccc(-c3cccc(N4CCOCC4)c3)nc2n1-c1ccc(CNC(=O)c2ccc(O)c(C=O)c2)cc1          > 7.00

Consider "Nc1ncccc1-c1nc2ccc(-c3ccccc3)nc2n1-c1ccc(CNc2cc(-c3ccc(O)c(C=O)c3)ccn2)cc1" . Its measured pIC50 is 6.30 to 7.00

Lookup result for CC(C(=O)NCc1ccc(-n2c(-c3cccnc3N)nc3ccc(-c4ccccc4)nc32)cc1)c1ccc(C=O)c(O)c1 (stereo not shown) ; measured pIC50: < 6.30

Recorded pIC50 (molecule "Nc1ncccc1-c1nc2ccc(N3CCOCC3)nc2n1-c1ccc(CNC(=O)Cc2ccc(C=O)c(O)c2)cc1" ): < 6.30
